# System: pigweed (Amaranthus retroflexus)
# Assay comment: Test A preemergence, visual plant response rating
# Type: in vivo
# Test conditions: 500 g ai/ha Preemergence; approx. 10 days
Please respond with reported Pigweed plant response rating (0 to 100 scale) for every item in the list.
Give bare numbers.

# example entries with known answers
{"Molecule": "CCO/N=C(/c1c(O)c(Cl)nn(C)c1=O)c1cccc2ccccc12", "Assay system": "pigweed (Amaranthus retroflexus)", "Observed result": 100}
{"Molecule": "CCO/N=C(/c1c(O)c(C)nn(C)c1=O)c1cccc2ccccc12", "Assay system": "pigweed (Amaranthus retroflexus)", "Observed result": 100}
{"Molecule": "CO/N=C(\\c1cc(C)ccc1C)c1c(O)c(C)nn(C)c1=O", "Assay system": "pigweed (Amaranthus retroflexus)", "Observed result": 80}
{"Molecule": "CO/N=C(/c1ccccc1F)c1c(O)c(C)nn(C)c1=O", "Assay system": "pigweed (Amaranthus retroflexus)", "Observed result": 10}
{"Molecule": "CCc1ccccc1C(=NOC)c1c(O)c(C)nn(C)c1=O", "Assay system": "pigweed (Amaranthus retroflexus)", "Observed result": 90}
{"Molecule": "CON=C(c1cc(Cl)ccc1Cl)c1c(O)c(C)nn(C)c1=O", "Assay system": "pigweed (Amaranthus retroflexus)", "Observed result": 100}

List reported Pigweed plant response rating (0 to 100 scale) for each of these molecules:
1. CON=C(c1cccc(Cl)c1)c1c(O)c(C)nn(C2CC2)c1=O (mixture of isomers)
2. CO/N=C(\c1cccc(C)c1F)c1c(O)c(C)nn(C)c1=O

1. 70
2. 90
